From: patent US12178842B2

Please respond with reported Ki for every item in the list.
- MEASUREMENT TARGET: PCSK9 (Homo sapiens, UniProt Q8NBP7)
- Construct: biotin (biotinylated); purchased
- Sequence (Q8NBP7 153-692): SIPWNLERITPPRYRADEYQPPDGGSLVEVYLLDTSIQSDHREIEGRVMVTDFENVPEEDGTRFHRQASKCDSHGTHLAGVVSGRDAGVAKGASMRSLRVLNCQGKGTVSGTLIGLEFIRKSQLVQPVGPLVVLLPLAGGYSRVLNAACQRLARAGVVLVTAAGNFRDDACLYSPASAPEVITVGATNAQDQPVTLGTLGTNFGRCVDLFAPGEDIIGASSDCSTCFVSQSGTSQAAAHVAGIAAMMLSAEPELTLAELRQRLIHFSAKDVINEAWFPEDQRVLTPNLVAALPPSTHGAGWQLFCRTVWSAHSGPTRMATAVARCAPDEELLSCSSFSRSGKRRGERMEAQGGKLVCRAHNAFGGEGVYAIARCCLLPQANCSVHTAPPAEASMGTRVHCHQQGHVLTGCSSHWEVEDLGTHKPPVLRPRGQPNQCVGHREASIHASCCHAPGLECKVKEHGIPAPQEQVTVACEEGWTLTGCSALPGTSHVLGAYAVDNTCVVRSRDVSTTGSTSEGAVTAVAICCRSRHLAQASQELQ
- PROTOCOL SUMMARY: PCSK9 Alexa FRET Plus TR-FRET assay
- Type: binding
- EXPERIMENTAL CONTEXT: Ki calculated from IC50 and KD of AF cyclic peptide Reagent B; 0.5 nM PCSK9, 960 nM AF cyclic peptide; read-out: Alexa FRET Plus TR-FRET

Ki of CCCCCCC(=O)NCCCCCCCC(=O)NCC[N+](C)(C)CCOCCOCCC(=O)NC[C@H]1NC(=O)[C@H](C)NC(=O)CCC(=O)N2CCCCCCn3cc(c4cc(F)ccc43)C[C@@H]3NC(=O)[C@H](Cc4cccc(c4)CNC(=O)CO[C@H]4CCN(C3=O)[C@@H]4C(=O)N[C@@H]([C@@H](C)O)C(=O)N[C@@H](Cc3ccc(OC)cc3)C(=O)N3CCC[C@@]3(C)C(=O)NCCc3ccc(cc3)C2)NC1=O [Ex-20] on PCSK9 (Homo sapiens, UniProt Q8NBP7)? < 6 pM

Another: CCCCCCC(=O)NCCCCCCCC(=O)N[C@@H](CCC(=O)NCCOCCOCC(=O)NCCOCCOCC(=O)NCC[N+](C)(C)CCCCCC(=O)NC[C@H]1NC(=O)[C@H](C)NC(=O)CCC(=O)N2CCCCCCn3cc(c4cc(F)ccc43)C[C@@H]3NC(=O)[C@H](Cc4cccc(c4)CNC(=O)CO[C@H]4CCN(C3=O)[C@@H]4C(=O)N[C@@H]([C@@H](C)O)C(=O)N[C@@H](Cc3ccc(OC)cc3)C(=O)N3CCC[C@@]3(C)C(=O)NCCc3ccc(cc3)C2)NC1=O)C(=O)O [Ex-19] < 6 pM

What do we get for COc1ccc(C[C@@H]2NC(=O)[C@H]([C@@H](C)O)NC(=O)[C@@H]3[C@@H]4CCN3C(=O)[C@@H]3Cc5cn(c6ccc(F)cc56)CCCCCCN(Cc5ccc(cc5)CCNC(=O)[C@]5(C)CCCN5C2=O)C(=O)CCC(=O)N[C@@H](C)C(=O)N[C@H](CNC(=O)CC[C@H](NC(=O)CCCCC[N+](C)(C)CCNC(=O)COCCOCCNC(=O)COCCOCCNC(=O)CC[C@H](NC(=O)CCCCCCCCCCCCCCCCC(=O)O)C(=O)O)C(=O)O)C(=O)N[C@@H](Cc2cccc(c2)CNC(=O)CO4)C(=O)N3)cc1 [compound 33] ? 14 pM

What do you get for COc1ccc(C[C@@H]2NC(=O)[C@H]([C@@H](C)O)NC(=O)[C@@H]3[C@@H]4CCN3C(=O)[C@@H]3Cc5cn(c6ccc(F)cc56)CCCCCCN(Cc5ccc(cc5)CCNC(=O)[C@]5(C)CCCN5C2=O)C(=O)CCC(=O)N[C@@H](C)C(=O)N[C@H](CNC(=O)CCOCCOCC[N+](C)(C)CCNC(=O)CCCCCCCCCCCCCCCCC(=O)O)C(=O)N[C@@H](Cc2cccc(c2)CNC(=O)CO4)C(=O)N3)cc1 [Ex-23] ? < 6 pM

What about this compound? COc1ccc(C[C@@H]2NC(=O)[C@H]([C@@H](C)O)NC(=O)[C@@H]3[C@@H]4CCN3C(=O)[C@@H]3Cc5cn(c6ccc(F)cc56)CCCCCCN(Cc5ccc(cc5)CCNC(=O)[C@]5(C)CCCN5C2=O)C(=O)CCC(=O)N[C@@H](C)C(=O)N[C@H](CNC(=O)COCCOCC[N+](C)(C)CCOCCNC(=O)COCCOCCNC(=O)COCCOCCNC(=O)CC[C@H](NC(=O)CCCCCCCCCCCCCCC(=O)O)C(=O)O)C(=O)N[C@@H](Cc2cccc(c2)CNC(=O)CO4)C(=O)N3)cc1 [compound 45] < 6 pM
